Tested on: SK-N-AS
Assay: Metabolic activity assay (CellTiter-Glo)
Assay type: cell-based
Conditions: Homo sapiens, HDAC inhibitor alone, 72 h, 384-well
pIC50: −log10 of the molar value.
readout-type: pIC50

                              record_smiles  experimental_value
0  C/C=C1\NC(=O)[C@H]2CSSCC/C=C/[C@H](CC(=O)N[C@H](C(C)C)C(=O)N2)OC(=O)[C@H](C(C)C)NC1=O                8.24
1  CN(C)Cc1c(C(=O)NCCOc2ccc(C(=O)NO)cc2)oc2ccccc12                7.33
2  Cc1[nH]c2ccccc2c1CCNCc1ccc(/C=C/C(=O)NO)cc1                8.66

====

Measured IC50 accompanies every entry in the list below.
Test system: SK-N-AS
Experiment: Metabolic activity assay (CellTiter-Glo)
Format: cell-based
Settings: HDAC inhibitor + APR-246 20 µM
readout-type: IC50 (nM)

>>> print(df.to_string())
                              record_smiles  experimental_value
0  C/C=C1\NC(=O)[C@H]2CSSCC/C=C/[C@H](CC(=O)N[C@H](C(C)C)C(=O)N2)OC(=O)[C@H](C(C)C)NC1=O                 1.8
1  Cc1[nH]c2ccccc2c1CCNCc1ccc(/C=C/C(=O)NO)cc1                   1
2  CN(C)Cc1c(C(=O)NCCOc2ccc(C(=O)NO)cc2)oc2ccccc12                15.4
